Listing of recorded microsomal CLint at 1 μM by entry.
# Experiment summary: In-vitro clearance in human liver microsomes (metabolic stability, compound depletion)

Compound	microsomal CLint at 1 μM / µL/min/mg
COC(=O)N1CC[C@@H]2[C@H]1CCC[C@]2(C#Cc1cccc(C)c1)OC(=O)CN(C)C	14
COC(=O)N1CC[C@@H]2[C@H]1CCC[C@]2(C#Cc1cccc(C)c1)OC(=O)CN1CCOCC1	770
COC(=O)N1CC[C@@H]2[C@H]1CCC[C@@]2(O)C#Cc1cccc(C)c1 [Example 1.0, reference compound]	113
COC(=O)N1CC[C@@H]2[C@H]1CCC[C@]2(C#Cc1cccc(C)c1)OC(=O)CCCN(C)C	283
COC(=O)N1CC[C@@H]2[C@H]1CCC[C@]2(C#Cc1cccc(C)c1)OC(=O)[C@@H](N)c1ccccc1	693

---

# Experiment summary: In-vitro clearance in rat liver microsomes (metabolic stability, compound depletion)
Listing of recorded log10(microsomal CLint at 1 μM) by entry.
Quantity kind: log10(microsomal CLint at 1 μM) (log10 of the value in µL/min/mg)

Compound	log10(microsomal CLint at 1 μM)
COC(=O)N1CC[C@@H]2[C@H]1CCC[C@]2(C#Cc1cccc(C)c1)OC(=O)[C@@H](N)CCSC [Example 6]	1.71
CC[C@H](C)[C@H](NC)C(=O)O[C@@]1(C#Cc2cccc(C)c2)CCC[C@@H]2[C@H]1CCN2C(=O)OC [Example 37]	2.84
COC(=O)N1CC[C@@H]2[C@H]1CCC[C@]2(C#Cc1cccc(C)c1)OC(=O)[C@@H](N)CC(C)C [Example 5]	1.68
COC(=O)N1CC[C@@H]2[C@H]1CCC[C@]2(C#Cc1cccc(C)c1)OC(=O)CCN [Example 40]	2.48
CN[C@H](C(=O)O[C@@]1(C#Cc2cccc(C)c2)CCC[C@@H]2[C@H]1CCN2C(=O)OC)C(C)C [Example 36]	2.91
COC(=O)N1CC[C@@H]2[C@H]1CCC[C@]2(C#Cc1cccc(C)c1)OC(=O)CCN1CCCC1 [Example 29]	2.86
COC(=O)N1CC[C@@H]2[C@H]1CCC[C@]2(C#Cc1cccc(C)c1)OC(=O)[C@H](C)N [Example 9]	2.55
CC[C@H](N)C(=O)O[C@@]1(C#Cc2cccc(C)c2)CCC[C@@H]2[C@H]1CCN2C(=O)OC [Example 30]	2.57
CCCCCCCCCC(=O)O[C@@]1(C#Cc2cccc(C)c2)CCC[C@@H]2[C@H]1CCN2C(=O)OC [Example 20]	0.73
CCCCCCCCCCCCC(=O)O[C@@]1(C#Cc2cccc(C)c2)CCC[C@@H]2[C@H]1CCN2C(=O)OC [Example 25]	1.51
CC[C@H](C)[C@H](N)C(=O)O[C@@]1(C#Cc2cccc(C)c2)CCC[C@@H]2[C@H]1CCN2C(=O)OC [Example 33]	2.82
COC(=O)N1CC[C@@H]2[C@H]1CCC[C@]2(C#Cc1cccc(C)c1)OC(=O)CN [Example 8]	1.94
COC(=O)N1CC[C@@H]2[C@H]1CCC[C@]2(C#Cc1cccc(C)c1)OC(=O)Cc1ccccc1 [Example 43]	1.56
COC(=O)N1CC[C@@H]2[C@H]1CCC[C@]2(C#Cc1cccc(C)c1)OC(=O)[C@@H](N)CC(C)(C)C [Example 34]	2.69
CNCC(=O)O[C@@]1(C#Cc2cccc(C)c2)CCC[C@@H]2[C@H]1CCN2C(=O)OC [Example 7]	2.54
